# ASSAY PROCEDURE: GEOMETRY mono-1: plasma pharmacokinetics of capmatinib
# Assay type: in vivo, human
# ASSAY CONTEXT: human, plasma, oral, 400 mg, AUC0–12, geometric mean (CV%), cycle 1, day 15 (steady state); 400 mg twice daily, fasting; Japanese patients
QUANTITY MEASURED: AUC(0-t)

Record request: AUC(0-t) value, item `CNC(=O)c1ccc(-c2cnc3ncc(Cc4ccc5ncccc5c4)n3n2)cc1F`
27000 ng·h/mL

* * *

# ASSAY PROCEDURE: GEOMETRY mono-1: plasma pharmacokinetics of capmatinib
# Type: in vivo, human
# ASSAY CONTEXT: human, plasma, oral, 400 mg, Cmax, geometric mean (CV%), cycle 1, day 15 (steady state); 400 mg twice daily, fasting; Japanese patients
QUANTITY MEASURED: Cmax
Answer by giving the amount and then stating its unit.

Record request: Cmax value, item `CNC(=O)c1ccc(-c2cnc3ncc(Cc4ccc5ncccc5c4)n3n2)cc1F`
5920 ng/mL
